Method summary: Human HepG2 cell viability assay in 384 well format
Format: toxicity, cell-based
Design: dose 125 nL, time 70.5 hour; concentration not given beside the values
Run parameters: HepG2 cells, read-out: Inhibition
The reader will find reported cytotoxicity at 70.5 h values listed item by item below.

q: Give recorded cytotoxicity at 70.5 h. CCN(Cc1ccncc1)C1CCCN(Cc2ccc(F)cc2Cl)C1 (stereo unspecified)
a: 1.69%

q: Recall and state the measured cytotoxicity at 70.5 h for "O=C(Nc1cc(C(F)(F)F)c[nH]c1=O)N1CCOCC1" .
a: -12.9%

q: Annotate the compound CCC(C)c1noc(C2CCN(C(=O)c3ccccn3)CC2)n1 (stereo unspecified) with its measured cytotoxicity at 70.5 h.
a: -3.62%

q: Using known records, supply cytotoxicity at 70.5 h for "N#Cc1cc(F)ccc1NCc1ccc(Cn2cncn2)cc1"
a: -3.41%

q: Provide measured cytotoxicity at 70.5 h value, entry: CCCN(Cc1cccnc1)C(=O)C1CCNC1 (stereo unspecified)
a: -1.17%

q: Read the entry "CCc1nnc(NC(=O)Cc2c(C)nc(C)[nH]c2=O)s1" and write its reported cytotoxicity at 70.5 h.
a: 13.4%
